Entries and their measured IC50 follow.
# System: vesicular stomatitis virus particles (VSV) pseudotyped with EboV Zaire GP
# ASSAY INFO: microbe, parasite or virus in culture
# Assay type: cell-based
# COND: Vesicular stomatitis virus
Your answer is read as nM, so omit the unit and give the number.

- [2H]C([2H])(c1cc(Cl)ccc1NCc1ccc(S(C)(=O)=O)cn1)N1CCN(C(=O)CNC(=O)[C@@H]2CC23CCC(F)(F)CC3)CC1 [Compound 1586]: 45

Q: Returns the measured IC50 for the input compound. Input: O=C(CC12CC3CC(C1)CC(c1ccccc1)(C3)C2)NCC(=O)N1CCN(Cc2ccccc2OCc2ccc(Br)cc2)CC1 [Compound 1141]
A: 700

Q: Returns the measured IC50 for the input compound. Input: COC(=O)c1ccc(COc2ccccc2CN2CCN(C(=O)CNC(=O)C3C4CC(F)(F)CC43)CC2)cc1 (centres unmarked) [Compound 1344]
A: 170

Q: Returns the measured IC50 for the input compound. Input: COC(=O)c1ccc(COc2ccc(F)cc2CN2CCN(C(=O)CNC(=O)CC3(C)CCCCC3)CC2)cc1 [Compound 1336]
A: 51

Q: Returns the measured IC50 for the input compound. Input: O=C(CNC(=O)C12CC3(F)CC(F)(CC(F)(C3)C1)C2)N1CCN(Cc2ccccc2OCc2ccc(Br)cc2)CC1 [Compound 1255]
A: 400

Q: Returns the measured IC50 for the input compound. Input: CN(C)S(=O)(=O)c1ccc(COc2ccccc2CN2CCN(C(=O)CNC(=O)CC34CC5CC(CC(C5)C3)C4)CC2)cc1 [Compound 1258]
A: 400
